Origin of values: the supplement of paper PMC10567573

B1: FADS1 (parent)
chain: LNFQIEHHLFPTMPRHNYHKVAPL

Variants of: B1
protocolDetails: protein stability index of a GFP-peptide fusion (GPS, HEK-293T) (PSI 1-6); higher = more stable;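 also: lentivirally expressed fusions sorted by FACS into six bins by GFP to DsRed ratio, PSI derived from sequencing read proportions per bin multiplied by bin number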
statedConditions: c terminus: a fixed tail appended

mutationSpec	protein stability index
A22P	2.1
L9R	1.87
P23L	2.4
K20E	1.94
E6S	1.8
K20P	2.71
Y18D	1.44
F3H	1.83
H7L	3.47
A22D	1.92
L9I	2.01
